Tested on: NCI-H1975
PROTOCOL_NOTES: Antiproliferative activity against human NCI-H1975 cells harboring EGFR L858R/T790M/C797S triple mutant assessed as inhibition of cell growth incubated for 72 hrs in presence of osimertinib by CellTiter-Glo luminescent assay
Type: functional, cell-based
CONDITION_SET: NCI-H1975, 72 h
MEASURED_ATTRIBUTE: pIC50
Entry type: numeric. Quantity: pIC50, the -log10 of concentration in molar units.

Bench note: what pIC50 did `O=C(Nc1nccs1)[C@@H](c1cc(F)ccc1O)N1Cc2ccc(-c3ccc(N4CCNCC4)cc3)cc2C1=O` show? 5.90

* * *

PROTOCOL_NOTES: Antiproliferative activity against human BEAS-2B cells assessed as inhibition of cell growth
Assay type: toxicity, cell-based
MEASURED_ATTRIBUTE: pIC50
Scale note: pIC50 = -log10(concentration in M).

Please give the measured pIC50 for this compound: `CN1CCN(c2ccc(-c3ccc4c(c3)CN([C@@H](C(=O)Nc3ccc(Nc5ccnc(N)n5)cc3)c3ccccc3)C4=O)cc2)CC1` 5.29

src = ChEMBL document CHEMBL5518176
